- Assay method text: in vivo
- Cond: male, Sprague-Dawley, rat, po, 50 mg/kg
Assay readout: MRT (h)
One number for each entry, in h.

Report measured MRT; entry is CCCCCCCCCNc1ccc(F)c(C(N)=O)c1F [Compound F332, 2,6-difluoro-3-(nonylamino)benzamide]
4.82

====

- Assay method text: in vivo
- Cond: male, Sprague-Dawley, rat, po, 50 mg/kg
Assay readout: Tmax (h)
Numbers only, in h.

Determine its reported Tmax: CCCCCCCCCNc1ccc(F)c(C(N)=O)c1F [Compound F332, 2,6-difluoro-3-(nonylamino)benzamide]
2
